The values you see were collected from ChEMBL document CHEMBL3526109.

tested on: Plasma; assay: Drug level in cynomolgus monkey plasma assessed as compound formation treated with [14C]brivanib alaninate at 10 mg/kg, po administered as single dose via gavage measured after 4 hrs by HPLC analysis; format: ADME, organism-based, Macaca fascicularis; conditions: in vivo
endpointLabel: Compound recovery (%)

entrySmiles: Cc1cc2c(F)c(Oc3ncnn4cc(OCC(=O)O)c(C)c34)ccc2[nH]1
targetDesc: Plasma
unitOfMeasure: %
Compound recovery: 2.7
--
entrySmiles: Cc1cc2c(F)c(Oc3ncnn4cc(OC[C@@H](C)OS(=O)(=O)O)c(C)c34)ccc2[nH]1
targetDesc: Plasma
unitOfMeasure: %
Compound recovery: 1.3
--
entrySmiles: Cc1cc2c(F)c(Oc3ncnn4cc(OC[C@@H](C)O[C@@H]5O[C@H](C(=O)O)[C@@H](O)[C@H](O)[C@H]5O)c(C)c34)ccc2[nH]1
targetDesc: Plasma
unitOfMeasure: %
Compound recovery: 1.9

I = Cc1cc2c(F)c(Oc3ncnn4cc(OC[C@@H](C)O)c(C)c34)ccc2[nH]1
II = Cc1c(OC[C@@H](C)OS(=O)(=O)O)cn2ncnc(Oc3ccc4[nH]c(CO)cc4c3F)c12
III = Cc1c(OC[C@@H](C)O)cn2ncnc(Oc3ccc4[nH]c(C(=O)O)cc4c3F)c12
Query: List items by Compound recovery in falling order. Submit the labels in the order that the ranking request calls for.
Result: I, III, II

I = Cc1cc2c(F)c(Oc3ncnn4cc(OS(=O)(=O)O)c(C)c34)ccc2[nH]1
II = Cc1c(OS(=O)(=O)O)cn2ncnc(Oc3ccc4[nH]c(C(=O)O)cc4c3F)c12
Query: Compare the recorded Compound recovery of I and II ; state which is larger. Write down the label attached to your selection.
Result: I

---

system: Homo sapiens; assay: AUC (0 to 12 hrs) human plasma treated with [14C]brivanib alaninate at 800 mg, po administered as single oral dose by HPLC analysis; type: ADME, organism-based; conditions: in vivo
endpointLabel: AUC (ugequiv/l.hr)

Use these answered entries as a reference point.
entrySmiles: Cc1cc2c(F)c(Oc3ncnn4cc(OC[C@@H](C)OS(=O)(=O)O)c(C)c34)ccc2[nH]1
AUC [ugequiv/l.hr]: 3611.4

entrySmiles: Cc1c(OC[C@@H](C)O)cn2ncnc(Oc3ccc4[nH]c(C(=O)O)cc4c3F)c12
AUC [ugequiv/l.hr]: 4119.3

P = Cc1c(OC[C@@H](C)OS(=O)(=O)O)cn2ncnc(Oc3ccc4[nH]c(CO)cc4c3F)c12
Q = Cc1cc2c(F)c(Oc3ncnn4cc(OS(=O)(=O)O)c(C)c34)ccc2[nH]1
R = Cc1cc2c(F)c(Oc3ncnn4cc(OC[C@@H](C)O)c(C)c34)ccc2[nH]1
S = Cc1c(OS(=O)(=O)O)cn2ncnc(Oc3ccc4[nH]c(C(=O)O)cc4c3F)c12
Query: List items by AUC in falling order. Submit the labels in the order that the ranking request calls for.
Result: R, S, Q, P

---

biological target: Fibroblast growth factor receptor 1 (Homo sapiens); test: Inhibition of human recombinant FGFR-1
Sequence (P11362 whole entry): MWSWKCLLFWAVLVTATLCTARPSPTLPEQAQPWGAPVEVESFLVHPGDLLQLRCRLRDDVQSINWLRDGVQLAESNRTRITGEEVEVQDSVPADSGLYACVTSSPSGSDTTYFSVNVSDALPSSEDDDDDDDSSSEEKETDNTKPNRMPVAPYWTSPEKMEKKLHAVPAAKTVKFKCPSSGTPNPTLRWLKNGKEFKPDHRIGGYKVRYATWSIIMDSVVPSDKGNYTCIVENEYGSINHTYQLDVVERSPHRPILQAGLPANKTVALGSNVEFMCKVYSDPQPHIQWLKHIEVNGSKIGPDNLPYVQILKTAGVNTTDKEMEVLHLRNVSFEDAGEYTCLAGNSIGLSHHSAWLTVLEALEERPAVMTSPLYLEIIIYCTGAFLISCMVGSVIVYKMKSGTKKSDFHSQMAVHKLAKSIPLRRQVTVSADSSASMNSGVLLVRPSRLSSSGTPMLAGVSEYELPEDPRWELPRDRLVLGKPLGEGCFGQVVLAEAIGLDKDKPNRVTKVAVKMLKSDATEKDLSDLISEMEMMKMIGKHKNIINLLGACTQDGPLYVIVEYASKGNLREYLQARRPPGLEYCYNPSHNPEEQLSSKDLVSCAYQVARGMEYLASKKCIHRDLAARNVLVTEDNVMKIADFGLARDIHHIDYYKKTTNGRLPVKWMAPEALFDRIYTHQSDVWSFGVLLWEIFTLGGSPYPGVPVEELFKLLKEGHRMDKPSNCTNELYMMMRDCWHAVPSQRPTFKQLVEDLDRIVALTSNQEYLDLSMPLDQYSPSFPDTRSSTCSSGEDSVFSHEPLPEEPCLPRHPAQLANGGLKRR
endpointLabel: IC50 (nM)

P = Cc1c(OC[C@@H](C)O)cn2ncnc(Oc3ccc4[nH]c(CO)cc4c3F)c12
Q = Cc1cc2c(F)c(Oc3ncnn4cc(OC[C@@H](C)OS(=O)(=O)O)c(C)c34)ccc2[nH]1
Query: Would you mind telling me which has the lower recorded IC50 between P and Q ? Write down the label attached to your selection.
Result: Q
(Q: 26 nM, P: 760 nM)

---

system: Plasma; assay: Drug level in human plasma assessed as compound formation treated with [14C]brivanib alaninate at 800 mg, po administered as single dose via gavage measured after 1 hr by HPLC analysis; assay type: ADME, organism-based; settings: in vivo
endpointLabel: Compound recovery (%)

entrySmiles: Cc1cc2c(F)c(Oc3ncnn4cc(OS(=O)(=O)O)c(C)c34)ccc2[nH]1
unitOfMeasure: %
Compound recovery: 8.8
//
entrySmiles: Cc1c(OC[C@@H](C)OS(=O)(=O)O)cn2ncnc(Oc3ccc4[nH]c(CO)cc4c3F)c12
unitOfMeasure: %
Compound recovery: 0.7

P = Cc1cc2c(F)c(Oc3ncnn4cc(O[C@@H]5O[C@H](C(=O)O)[C@@H](O)[C@H](O)[C@H]5O)c(C)c34)ccc2[nH]1
Q = Cc1cc2c(F)c(Oc3ncnn4cc(OC[C@@H](C)O)c(C)c34)ccc2[nH]1
R = Cc1c(OC[C@@H](C)O)cn2ncnc(Oc3ccc4[nH]c(C(=O)O)cc4c3F)c12
S = Cc1cc2c(F)c(Oc3ncnn4cc(OC[C@@H](C)O[C@@H]5O[C@H](C(=O)O)[C@@H](O)[C@H](O)[C@H]5O)c(C)c34)ccc2[nH]1
Query: Arrange these 4 compounds in increasing order of Compound recovery. Submit the labels in the order that the ranking request calls for.
Result: P, S, R, Q
(P: 0.8%, S: 2.6%, R: 6.8%, Q: 72.4%)

---

experiment: Drug excretion in human urine treated with [14C]brivanib alaninate at 800 mg, po administered as single dose […] by HPLC analysis; assay type: ADME, organism-based; conditions: in vivo
endpointLabel: Compound recovery

Use these answered entries as a reference point.
entrySmiles: CC(=O)COc1cn2ncnc(Oc3ccc4[nH]c(C)cc4c3F)c2c1C
Compound recovery: metabolite_not_detected
--
entrySmiles: Cc1cc2c(F)c(Oc3ncnn4cc(OS(=O)(=O)O)c(C)c34)ccc2[nH]1
Compound recovery: metabolite_not_detected
--
entrySmiles: Cc1c(OC[C@@H](C)OS(=O)(=O)O)cn2ncnc(Oc3ccc4[nH]c(C(=O)O)cc4c3F)c12
Compound recovery: 2.4%
--
entrySmiles: Cc1c(OS(=O)(=O)O)cn2ncnc(Oc3ccc4[nH]c(CO)cc4c3F)c12
Compound recovery: metabolite_not_detected

Query: // returns reported Compound recovery for input `Cc1c(O)cn2ncnc(Oc3ccc4[nH]c(C(=O)O)cc4c3F)c12`
Result: metabolite_not_detected

Query: Continue with `Cc1cc2c(F)c(Oc3ncnn4cc(O)c(C)c34)ccc2[nH]1`
Result: metabolite_not_detected

Query: Continue with `Cc1c(OC[C@@H](C)OS(=O)(=O)O)cn2ncnc(Oc3ccc4[nH]c(CO)cc4c3F)c12`
Result: 3.6%

---

assay: Drug excretion in cynomolgus monkey urine treated with [14C]brivanib alaninate at 10 mg/kg, po administered as single dose via gavage by HPLC analysis; assay type: ADME, organism-based, Macaca fascicularis; conditions: in vivo
endpointLabel: Compound recovery (%)

P = Cc1cc2c(F)c(Oc3ncnn4cc(OC[C@@H](C)O[C@@H]5O[C@H](C(=O)O)[C@@H](O)[C@H](O)[C@H]5O)c(C)c34)ccc2[nH]1
Q = Cc1cc2c(F)c(Oc3ncnn4cc(OCC(=O)O)c(C)c34)ccc2[nH]1
R = Cc1c(OC[C@@H](C)OS(=O)(=O)O)cn2ncnc(Oc3ccc4[nH]c(CO)cc4c3F)c12
Query: Sort key: Compound recovery. Order: high to low. Scope: items listed above. Submit the labels in the order that the ranking request calls for.
Result: R, P, Q
(R: 4.9%, P: 0.3%, Q: 0.2%)

---

tested on: Plasma; assay: Drug level in human plasma assessed as compound formation treated with [14C]brivanib alaninate at 800 mg, po administered as single dose via gavage measured after 8 hrs by HPLC analysis; assay type: ADME, organism-based; conditions: in vivo
endpointLabel: Compound recovery (%)

P = Cc1c(OC[C@@H](C)O)cn2ncnc(Oc3ccc4[nH]c(C(=O)O)cc4c3F)c12
Q = Cc1cc2c(F)c(Oc3ncnn4cc(O[C@@H]5O[C@H](C(=O)O)[C@@H](O)[C@H](O)[C@H]5O)c(C)c34)ccc2[nH]1
R = Cc1cc2c(F)c(Oc3ncnn4cc(OS(=O)(=O)O)c(C)c34)ccc2[nH]1
S = Cc1cc2c(F)c(Oc3ncnn4cc(OC[C@@H](C)O)c(C)c34)ccc2[nH]1
Query: Sort key = Compound recovery. Sort direction = ascending. Apply to the list above. Submit the labels in the order that the ranking request calls for.
Result: Q, P, R, S
(Q: 2%, P: 4.9%, R: 7.6%, S: 46.7%)

---

system: Plasma; experiment: Drug level in human plasma assessed as compound formation treated with [14C]brivanib alaninate at 800 mg, po administered as single dose via gavage measured after 2 hrs by HPLC analysis; assay type: ADME, organism-based; details: in vivo
endpointLabel: Compound recovery (%)

Use these answered entries as a reference point.
compound: Cc1cc2c(F)c(Oc3ncnn4cc(OC[C@@H](C)O[C@@H]5O[C@H](C(=O)O)[C@@H](O)[C@H](O)[C@H]5O)c(C)c34)ccc2[nH]1
reportedMeasurement: 2.3
//
compound: Cc1cc2c(F)c(Oc3ncnn4cc(OC[C@@H](C)OS(=O)(=O)O)c(C)c34)ccc2[nH]1
reportedMeasurement: 2.3
//
compound: Cc1c(OC[C@@H](C)O)cn2ncnc(Oc3ccc4[nH]c(C(=O)O)cc4c3F)c12
reportedMeasurement: 7.6
//
compound: Cc1c(OC[C@@H](C)OS(=O)(=O)O)cn2ncnc(Oc3ccc4[nH]c(CO)cc4c3F)c12
reportedMeasurement: 2.9

A = Cc1cc2c(F)c(Oc3ncnn4cc(O[C@@H]5O[C@H](C(=O)O)[C@@H](O)[C@H](O)[C@H]5O)c(C)c34)ccc2[nH]1
B = Cc1c(OS(=O)(=O)O)cn2ncnc(Oc3ccc4[nH]c(C(=O)O)cc4c3F)c12
C = Cc1cc2c(F)c(Oc3ncnn4cc(OS(=O)(=O)O)c(C)c34)ccc2[nH]1
D = Cc1cc2c(F)c(Oc3ncnn4cc(OC[C@@H](C)O)c(C)c34)ccc2[nH]1 [BRIVANIB]
Query: List items by Compound recovery in falling order. Submit the labels in the order that the ranking request calls for.
Result: D, B, C, A
(D: 56.9%, B: 11.3%, C: 6.7%, A: 3%)
